Values were extracted from paper PMC8869400.

target: PTP1B (Homo sapiens, UniProt P18031); construct: purchased Enzo Life Sciences; experiment: In vitro assay for PTP1B inhibitory activity (pNPP); format: biochemical; details: PTP1B IC50, mean ± SD of triplicate experiments
Sequence (P18031 whole entry): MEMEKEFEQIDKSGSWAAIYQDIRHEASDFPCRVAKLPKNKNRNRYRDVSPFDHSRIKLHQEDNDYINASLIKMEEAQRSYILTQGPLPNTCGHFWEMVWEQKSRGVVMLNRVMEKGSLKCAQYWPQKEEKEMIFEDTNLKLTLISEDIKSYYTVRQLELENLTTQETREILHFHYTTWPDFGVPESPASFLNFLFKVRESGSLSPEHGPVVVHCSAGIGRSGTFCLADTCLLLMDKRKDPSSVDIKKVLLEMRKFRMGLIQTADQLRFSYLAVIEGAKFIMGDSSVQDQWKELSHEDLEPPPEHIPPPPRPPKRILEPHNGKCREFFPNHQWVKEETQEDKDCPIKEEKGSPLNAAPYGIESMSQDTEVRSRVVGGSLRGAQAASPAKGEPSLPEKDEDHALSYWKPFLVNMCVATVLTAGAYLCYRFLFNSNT
MEASURED_METRIC: IC50
Write the numeric value and append its unit.

## Task Supply IC50 value. Item: Oc1cc(O)cc(/C=C/c2ccc(O)cc2O)c1
## Result 2.85 µM

###

target: PTP1B (Homo sapiens, UniProt P18031); construct: purchased Enzo Life Sciences; assay: Kinetic study for PTP1B inhibition (Lineweaver–Burk and Dixon plots); format: biochemical; conditions: determined using Dixon plots; read-out: PTP1B Ki
For each of the compounds below, state its Ki.
Write the numeric value and append its unit.

## Task Supply Ki value. Item: CC(C)=CCc1c(-c2ccc(O)cc2O)oc2c(CC=C(C)C)c(O)cc(O)c2c1=O
## Result 39.4 µM

## Task Supply Ki value. Item: CC(C)=CCc1c(-c2ccc(O)cc2O)oc2c(C3C=C(C)CC(c4ccc(O)cc4O)C3C(=O)c3ccc(O)cc3O)c(O)cc(O)c2c1=O (centres unmarked)
## Result 12.4 µM

###

target: α-glucosidase (Saccharomyces cerevisiae, UniProt P53341); construct: purchased Sigma-Aldrich Chemical Company; assay: Kinetic study for α-glucosidase inhibition (Lineweaver–Burk and Dixon plots); format: biochemical; settings: determined using Dixon plots; read-out: α-Glucosidase Ki
Sequence (P53341 whole entry): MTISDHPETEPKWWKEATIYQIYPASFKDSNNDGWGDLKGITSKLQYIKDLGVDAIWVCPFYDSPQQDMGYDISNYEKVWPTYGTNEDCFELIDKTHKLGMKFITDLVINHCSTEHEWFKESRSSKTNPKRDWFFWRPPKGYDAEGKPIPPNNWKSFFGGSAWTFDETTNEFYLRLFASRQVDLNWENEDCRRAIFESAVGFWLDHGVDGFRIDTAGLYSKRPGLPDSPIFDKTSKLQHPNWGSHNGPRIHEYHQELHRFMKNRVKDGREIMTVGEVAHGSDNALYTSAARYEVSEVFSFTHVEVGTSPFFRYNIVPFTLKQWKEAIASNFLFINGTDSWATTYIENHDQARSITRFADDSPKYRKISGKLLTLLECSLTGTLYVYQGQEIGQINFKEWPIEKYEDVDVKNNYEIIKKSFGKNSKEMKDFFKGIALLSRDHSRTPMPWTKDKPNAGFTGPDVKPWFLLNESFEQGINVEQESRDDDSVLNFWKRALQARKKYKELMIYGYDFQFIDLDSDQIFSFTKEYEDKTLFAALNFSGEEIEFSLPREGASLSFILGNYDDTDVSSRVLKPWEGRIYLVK
For each of the compounds below, state its Ki.
Answer format: numeric, µM implied, no suffix.

## Task Supply Ki value. Item: O=C1c2c(O)cc(O)cc2O[C@H](c2ccc(O)cc2O)[C@H]1O [Dihydromorin (3), Dihydromorin]
## Result 10.2

## Task Supply Ki value. Item: Oc1cc(O)cc(-c2cc3ccc(O)cc3o2)c1
## Result 3.32

## Task Supply Ki value. Item: CC(C)=CCc1c(-c2ccc(O)cc2O)oc2c(CC=C(C)C)c(O)cc(O)c2c1=O
## Result 6.85

## Task Supply Ki value. Item: O=c1cc(-c2ccc(O)cc2O)oc2cc(O)cc(O)c12
## Result 19.9
